Biological target: SOS1 (Homo sapiens (Human), UniProt Q07889)
Sequence (Q07889 564-1049): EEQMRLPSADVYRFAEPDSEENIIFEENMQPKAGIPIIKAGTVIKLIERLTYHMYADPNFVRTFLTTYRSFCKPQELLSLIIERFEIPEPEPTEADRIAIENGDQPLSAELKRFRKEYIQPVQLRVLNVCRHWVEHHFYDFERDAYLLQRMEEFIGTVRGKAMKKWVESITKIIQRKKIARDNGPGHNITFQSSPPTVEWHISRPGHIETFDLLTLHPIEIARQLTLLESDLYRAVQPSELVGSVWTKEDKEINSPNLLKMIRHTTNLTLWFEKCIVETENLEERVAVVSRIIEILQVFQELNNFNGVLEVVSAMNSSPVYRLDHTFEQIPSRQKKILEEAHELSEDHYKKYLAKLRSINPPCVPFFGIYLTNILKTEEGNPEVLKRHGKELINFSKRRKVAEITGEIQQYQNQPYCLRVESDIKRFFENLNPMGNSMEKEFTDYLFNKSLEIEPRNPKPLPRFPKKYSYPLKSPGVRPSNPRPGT
Assay: Ras-SOS interaction assay (HTRF)
Assay type: biochemical
Details: K-RasG13D utilized, read-out: IC50 inhibition of SOS
measured_attribute: IC50

Reference set (6 entries):
smiles_data | recorded_result
C[C@@H](Nc1ncnc2nc(OC3COC3)c(C3(C#N)CC3)cc12)c1cccc(C(F)F)c1F | 100 to 1000 nM
COc1nc2nc(C)nc(N[C@H](C)c3cccc(C(F)(F)C(C)(C)O)c3F)c2cc1C1(C#N)CC1 | < 100 nM
Cc1nc(N[C@H](C)c2cccc(C(F)(F)CO)c2F)c2cc(C3(C#N)CC3)c(N3CCN(C(C)C)CC3)nc2n1 | < 100 nM
Cc1nc(N[C@H](C)c2cccc(C(F)(F)CO)c2)c2cc(C3(C#N)CC3)c(Cl)nc2n1 | < 100 nM
Cc1nc(N[C@H](C)c2cccc(C(F)F)c2F)c2cc(C3CCN(C)CC3)c(OC3COC3)nc2n1 | < 100 nM
COc1nc2ncnc(N[C@H](C)c3cccc(C(F)(F)CO)c3)c2cc1N1CCN(C(C)C)CC1 | < 100 nM

Now examine the next entry.
Value (IC50, SOS1 (Homo sapiens (Human), UniProt Q07889)) for record `COc1nc2ncnc(N[C@H](C)c3cccc(C(F)F)c3F)c2cc1N1CCS(=O)(=O)CC1` = < 100 nM

----------
Quick reference: IC50 of the listed items.
Target: SOS1 (Homo sapiens (Human))
Test: Ras-SOS interaction assay (HTRF)
Type: biochemical
Details: K-RasG13D, read-out: IC50 value against SOS1

Reference set (3 entries):
molecule | IC50
Cc1nc(N[C@H](C)c2cccc(C(F)F)c2F)c2cc(C3CCS(=O)(=O)CC3)c(OCCN(C)C)nc2n1 | < 50 nM
COCCOc1nc2nc(C)nc(N[C@H](C)c3cccc(C(F)F)c3F)c2cc1N1CCN(C)CC1 | < 50 nM
COc1nc2nc(C)nc(N[C@H](C)c3cccc(C(F)F)c3F)c2cc1C1(C#N)CCN(C)CC1 | < 50 nM

Now examine the next entry.
# molecule `COc1nc2nc(C)nc(N[C@H](C)c3cccc(C(F)F)c3F)c2cc1C1CCN(C2CCOCC2)CC1` ; its IC50 = < 50 nM

----------
Assay: Metabolic (microsomal) stability assay
Type: in vitro ADME
Conditions: mouse liver microsomes, T1/2; read-out: DMPK-invitro-metabolic Stability (Mouse T1/2)
measured_attribute: half-life (h)

1 = COc1nc2nc(C)nc(N[C@H](C)c3cccc(C(F)(F)[C@@H](C)O)c3F)c2cc1C1(C#N)CC1 [Compound 332]
2 = Cc1nc(N[C@H](C)c2cccc(C(F)F)c2F)c2cc(C3(C#N)CC3)c(OC3COC3)nc2n1 [Compound 402]
3 = COc1nc2nc(C)nc(N[C@H](C)c3cccc(C(F)(F)C(C)(C)O)c3)c2cc1C1(C#N)CC1 [Compound 175]
# descending half-life order for the listed molecules A ranking is expressed here by listing the labels in the requested order. 3, 1, 2

----------
Molecular target: SOS1 (Homo sapiens (Human))
Assay: Ras-SOS interaction assay (HTRF)
Format: biochemical
Conditions: K-RasG13D, read-out: IC50 value against SOS1
pIC50: −log10 of the molar value.
measured_attribute: pIC50

molecule | measurement_target | pIC50
COc1nc2ncnc(N[C@H](C)c3cccc(C(F)(F)F)c3C)c2cc1N1CCS(=O)(=O)CC1 [Compound 381] | SOS1 (Homo sapiens (Human)) | > 7.30

# molecule COc1nc2nc(C)nc(N[C@H](C)c3cccc(C(F)(F)CO)c3)c2cc1C1(C#N)CC1 [Compound 179] ; its pIC50 = > 7.30

# molecule COc1nc2ncnc(N[C@H](C)c3cccc(C(F)(F)F)c3F)c2cc1N1CCN(C(C)C)CC1 [Compound 159] ; its pIC50 = > 7.30

# molecule Cc1c([C@@H](C)Nc2ncnc3nc(Cl)c(C4CCS(=O)(=O)CC4)cc23)cccc1C(F)(F)F [Compound 260] ; its pIC50 = > 7.30

# molecule CNCCOc1nc2nc(C)nc(N[C@H](C)c3cccc(C(F)F)c3F)c2cc1C1CCN(C(C)C)CC1 [Compound 404] ; its pIC50 = > 7.30

# molecule Cc1nc(N[C@H](C)c2cccc(C(F)(F)F)c2F)c2cc(C3CCS(=O)(=O)CC3)c(Cl)nc2n1 [Compound 262] ; its pIC50 = > 7.30

# molecule COc1nc2ncnc(N[C@H](C)c3cccc(C(F)(F)F)c3F)c2cc1C1CCS(=O)(=O)CC1 [Compound 375] ; its pIC50 = > 7.30

# molecule Cc1nc(N[C@H](C)c2cccc(C(F)F)c2F)c2cc(C3CCN(C)CC3)c(OC3CN(C)C3)nc2n1 [Compound 252] ; its pIC50 = > 7.30

# molecule COc1nc2nc(C)nc(N[C@H](C)c3cccc(C(F)(F)CO)c3F)c2cc1N1CCS(=O)(=O)CC1 [Compound 307] ; its pIC50 = > 7.30

# molecule Cc1nc(N[C@H](C)c2cccc(C(F)(F)F)c2F)c2cc(N3CCS(=O)(=O)CC3)c(Cl)nc2n1 [Compound 257] ; its pIC50 = > 7.30

# molecule COCCOc1nc2nc(C)nc(N[C@H](C)c3cccc(C(F)F)c3F)c2cc1C1CCS(=N)(=O)CC1 (some centres unmarked) [Compound 368] ; its pIC50 = > 7.30

# molecule COc1nc2nc(C)nc(N[C@H](C)c3cccc(C(F)F)c3F)c2cc1CN1CCN(C(C)C)CC1 [Compound 105] ; its pIC50 = > 7.30

# molecule COc1nc2nc(C)nc(N[C@H](C)c3cccc(C(F)F)c3F)c2cc1C1(C#N)CCOCC1 [Compound 320] ; its pIC50 = > 7.30

# molecule CC(C)N1CCC(C(F)(F)c2cccc([C@@H](C)Nc3ncnc4nc(Cl)c(N5CCN(C(C)C)CC5)cc34)c2F)CC1 [Compound 224] ; its pIC50 = > 7.30

# molecule COc1nc2nc(C)nc(N[C@H](C)c3cccc(C(F)(F)F)c3F)c2cc1N1CCN(C(=O)CN(C)C)CC1 [Compound 312] ; its pIC50 = > 7.30

# molecule Cc1nc(N[C@H](C)c2cccc(C(F)F)c2F)c2cc(N3CCN(C(C)C)CC3)c(OC3CN(C)C3)nc2n1 [Compound 370] ; its pIC50 = > 7.30

# molecule Cc1nc(N[C@H](C)c2cccc(C(F)F)c2F)c2cc(C3(C#N)CC3)c(OC[C@H]3CCCN3C)nc2n1 [Compound 235] ; its pIC50 = > 7.30

Every entry's value here was drawn from patent US11648254B2.
